- System: human epithelial pancreatic adenocarcinoma (BxPC-3) cell line
- assay protocol: Antiproliferative activity (MTS and Resazurin assays), BxPC-3
- Type: cell-based
- condition: Homo sapiens, BXPC-3
- Method: The antiproliferative activity of the studied substances was determined toward a series of cancer cell lines (HL-60 (ATCC CCL-240), BxPC-3 (ATCC CRL-1687), HeLa (ATCC CCL-2), RD (ATCC CCL-136)), and a normal cell line (MDCK (ATCC CCL-34)). These cell lines were cultured in accordance with the previously described method. […]
pIC50: −log10 of the molar value.

{"compound": "COc1cccc2c1C(=O)c1c(O)c3c(c(O)c1C2=O)C[C@@](O)(C(=O)CO)C[C@@H]3O[C@H]1C[C@H](N)[C@H](O)[C@H](C)O1 [Doxorubicin, doxorubicin, reference compound]", "pIC50": 5.43}
